Format: in vitro ADME
CONDITIONS USED: extraction ratio, compound at 1 uM, SD rat liver microsomes 0.5 mg/mL

CPD SMILES: CC(C)(C)[C@H](NC(=O)C(F)F)C(=O)N1C[C@H]2[C@@H]([C@H]1C(=O)N[C@H](C#N)C[C@@H]1CCNC1=O)C2(C)C
Liver Microsomal Stability (ER) SD rat: 0.02
//
CPD SMILES: CC(C)[C@H](NC(=O)[C@@H]1[C@@H]2[C@H](CN1C(=O)[C@@H](NC(=O)C(F)(F)F)C(C)(C)C)C2(C)C)C(=O)CCl
Liver Microsomal Stability (ER) SD rat: 0.65
//
CPD SMILES: CC(C)C[C@H](NC(=O)c1cc2ccccc2[nH]1)C(=O)N1C[C@H]2[C@@H]([C@H]1C(=O)N[C@H](C#N)C[C@@H]1CCNC1=O)C2(C)C
Liver Microsomal Stability (ER) SD rat: 0.33
//
CPD SMILES: CC(C)C[C@H](NC(=O)[C@@H](NC(=O)C(F)F)[C@@H](C)OC(C)(C)C)C(=O)N[C@H](C#N)C[C@@H]1CCNC1=O
Liver Microsomal Stability (ER) SD rat: 0.21
//
CPD SMILES: CC1(C)[C@@H]2[C@@H](C(=O)N[C@H](C#N)C[C@@H]3CCCNC3=O)N(C(=O)[C@@H](NC(=O)C(F)F)C3CC3)C[C@@H]21
Liver Microsomal Stability (ER) SD rat: 0.04
//
CPD SMILES: CC(C)C[C@H](NC(=O)c1cc2ccccc2[nH]1)C(=O)N1C[C@H]2[C@@H]([C@H]1C(=O)N[C@H](C=O)C[C@@H]1CCNC1=O)C2(C)C
Liver Microsomal Stability (ER) SD rat: 0.16
//
CPD SMILES: COc1cccc2[nH]c(C(=O)N[C@@H](CC(C)C)C(=O)N[C@H](C=O)C[C@@H]3CCNC3=O)cc12
Liver Microsomal Stability (ER) SD rat: 0.11
//
CPD SMILES: CC(C)C[C@H](NC(=O)c1cc2ccccc2[nH]1)C(=O)N[C@@H](C[C@@H]1CCNC1=O)C(=O)CO
Liver Microsomal Stability (ER) SD rat: 0.13
//
CPD SMILES: C[C@@H](OC(C)(C)C)[C@H](NC(=O)OCc1ccccc1)C(=O)N[C@@H](CC1CCCCC1)C(=O)N[C@H](C=O)C[C@@H]1CCNC1=O
Liver Microsomal Stability (ER) SD rat: 0.29
//
CPD SMILES: CC(C)C[C@H](NC(=O)C(F)F)C(=O)N1C[C@H]2[C@@H]([C@H]1C(=O)N[C@H](C#N)C[C@@H]1CCNC1=O)C2(C)C
Liver Microsomal Stability (ER) SD rat: 0.06
//
CPD SMILES: CC(C)C[C@H](NC(=O)C(F)(F)F)C(=O)N1C[C@H]2[C@@H]([C@H]1C(=O)N[C@H](C#N)C[C@@H]1CCNC1=O)C2(C)C
Liver Microsomal Stability (ER) SD rat: 0.06
//
CPD SMILES: CC(C)C[C@H](NC(=O)C(C)C)C(=O)N1C[C@H]2[C@@H]([C@H]1C(=O)N[C@H](C#N)C[C@@H]1CCNC1=O)C2(C)C
Liver Microsomal Stability (ER) SD rat: 0.06
